systemTested: dimer forming interface (Homo sapiens, UniProt P15056)
Sequence (P15056 2-766 limits assumed): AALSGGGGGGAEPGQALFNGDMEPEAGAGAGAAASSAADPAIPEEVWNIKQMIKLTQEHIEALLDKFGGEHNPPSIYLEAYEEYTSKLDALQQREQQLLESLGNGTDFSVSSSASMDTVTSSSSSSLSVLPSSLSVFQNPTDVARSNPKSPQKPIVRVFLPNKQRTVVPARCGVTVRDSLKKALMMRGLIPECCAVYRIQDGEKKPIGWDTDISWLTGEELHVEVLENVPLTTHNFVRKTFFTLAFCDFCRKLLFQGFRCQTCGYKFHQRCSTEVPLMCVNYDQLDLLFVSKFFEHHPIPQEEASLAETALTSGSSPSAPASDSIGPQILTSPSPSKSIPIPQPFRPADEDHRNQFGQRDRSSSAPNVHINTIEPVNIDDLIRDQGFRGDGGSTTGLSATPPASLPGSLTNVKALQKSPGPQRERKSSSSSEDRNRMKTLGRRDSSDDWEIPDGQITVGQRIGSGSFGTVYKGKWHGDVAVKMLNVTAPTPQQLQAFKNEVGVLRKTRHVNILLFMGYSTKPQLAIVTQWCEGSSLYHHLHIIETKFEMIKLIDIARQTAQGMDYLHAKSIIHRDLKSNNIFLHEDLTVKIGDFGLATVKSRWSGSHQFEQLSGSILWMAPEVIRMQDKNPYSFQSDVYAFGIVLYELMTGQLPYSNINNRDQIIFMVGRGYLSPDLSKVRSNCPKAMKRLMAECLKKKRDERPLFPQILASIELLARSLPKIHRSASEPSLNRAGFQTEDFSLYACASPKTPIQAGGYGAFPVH
measurementNotes: Kd (μM)
pKd: −log10 of the molar value. Where no end group is shown, it is not given here.
endpointLabel: pKd

1) VLRKTRHVNIALFMG [compound 28] ... 5.99
2) VLRKTRHVNILLFAG [compound 30] ... 6.27
3) VLAKTRHVNILLFMG [SEQ ID NO: 22] ... 6.44

---

systemTested: dimer forming interface (Homo sapiens, UniProt P15056)
measurementNotes: Kd (μM)
Where no end group is shown, it is not given here.
endpointLabel: Kd (µM)

1) VLRKTRHVNALLFMG [compound 27] ... 2.69
2) VARKTRHVNILLFMG [compound 21] ... 0.45
3) LLKTRHVNILLFMG [compound 32] ... 0.55
4) VLRKTRHVNILLAMG [compound 29] ... 0.57
5) VLRKTRAVNILLFMG [compound 25] ... 2.7
6) LRKTRHVNILLFMG [SEQ ID NO: 31] ... 0.19
7) VLRKTAHVNILLFMG [compound 24] ... 2.4

---

systemTested: B-Raf (Homo sapiens)
measurementNotes: Dissociation constant (Kd) determination from intrinsic Trp fluorescence (ITF)
Format: binding
Where a SMILES comes first, the peptide text is derived from it. Bridges are numbered along the chain shown (N, C = ends).
endpointLabel: Kd

1) CSCC[C@H](NC(=O)[C@H](Cc1ccccc1)NC(=O)[C@H](CCC(C)C)NC(=O)[C@H](CC(C)C)NC(=O)[C@@H]1CCC(=O)NCCC[C@H](NC(=O)[C@H](CCCCN)NC(=O)[C@H](CCCNC(=N)N)NC(=O)[C@H](CC(C)C)NC(=O)[C@@H](N)C(C)C)C(=O)N[C@@H](CCCNC(=N)N)C(=O)N[C@@H](Cc2c[nH]cn2)C(=O)N[C@@H](C(C)C)C(=O)N[C@@H](C)C(=O)N1)C(=O)NCC(N)=O ... 430 nM
2) CC(C)[C@@H]1NC(=O)[C@H](Cc2c[nH]cn2)NC(=O)[C@H](CCCNC(=N)N)NC(=O)[C@@H](N)CCCCNC(=O)CC[C@@H](C(N)=O)NC(=O)[C@H](C)NC1=O [compound 48] (H-KRHVAE-NH2; lactam 1-6) ... 300 nM
3) CSCC[C@H](NC(=O)[C@H](Cc1ccccc1)NC(=O)[C@H](CC(C)C)NC(=O)[C@H](CC(C)C)NC(=O)[C@@H]1CCC(=O)NCCCC[C@H](NC(=O)[C@H](CCCCN)NC(=O)[C@H](CCCNC(=N)N)NC(=O)[C@H](CC(C)C)NC(=O)[C@@H](N)C(C)C)C(=O)N(C)[C@@H](CCCNC(=N)N)C(=O)N[C@@H](Cc2c[nH]cn2)C(=O)N[C@@H](C(C)C)C(=O)N[C@@H](C)C(=O)N1)C(=O)NCC(N)=O ... 39 nM
4) CSCC[C@H](NC(=O)[C@H](Cc1ccccc1)NC(=O)[C@H](CC(C)C)NC(=O)[C@H](CC(C)C)NC(=O)[C@@H]1CCC(=O)NCCCC[C@H](NC(=O)[C@H](CCCCN)NC(=O)[C@H](CCCNC(=N)N)NC(=O)[C@H](CC(C)C)NC(=O)[C@@H](N)C(C)C)C(=O)N[C@@H](CCCNC(=N)N)C(=O)N[C@@H](Cc2c[nH]cn2)C(=O)N[C@@H](C(C)C)C(=O)N[C@@H](CC(N)=O)C(=O)N1)C(=O)NCC(N)=O ... 1890 nM

---

systemTested: B-Raf (Homo sapiens)
measurementNotes: Dissociation constant (Kd) determination from intrinsic Trp fluorescence (ITF)
Type: binding
Where a SMILES comes first, the peptide text is derived from it. Bridges are numbered along the chain shown (N, C = ends). [ ]: non-standard residue; d: D form. Orn = NCCC[C@H](N)C(=O)O
endpointLabel: Kd (nM)

1. CSCC[C@H](NC(=O)[C@H](Cc1ccccc1)NC(=O)[C@H](CC(C)C)NC(=O)[C@H](CC(C)C)NC(=O)[C@@H]1CCC(=O)NCCCC[C@H](N)C(=O)N[C@@H](CCCNC(=N)N)C(=O)N[C@@H](Cc2c[nH]cn2)C(=O)N2CCC[C@H]2C(=O)N[C@@H](C)C(=O)N1)C(=O)NCC(N)=O [compound 61] (H-KRHPAELLFMG-NH2; lactam 1-6) ... 160
2. CC[C@H](C)[C@H](NC(=O)[C@H](CC(C)C)NC(=O)[C@@H]1CCC(=O)NCCC[C@H](NC(=O)[C@H](CCCCN)NC(=O)[C@H](CCCNC(=N)N)NC(=O)[C@H](CC(C)C)NC(=O)[C@@H](N)C(C)C)C(=O)N[C@@H](CCCNC(=N)N)C(=O)N[C@@H](Cc2c[nH]cn2)C(=O)N[C@@H](C(C)C)C(=O)N[C@@H](C)C(=O)N1)C(=O)N[C@@H](Cc1ccccc1)C(=O)N[C@@H](CCSC)C(=O)NCC(N)=O [compound 58] (H-VLRK[Orn]RHVAELIFMG-NH2; lactam 5-10; N-terminus assumed) ... 170
3. CSCC[C@H](NC(=O)[C@H](Cc1ccccc1)NC(=O)[C@H](CC(C)C)NC(=O)[C@H](CC(C)C)NC(=O)[C@@H]1CCC(=O)NCCCC[C@H](N)C(=O)N[C@@H](CCCNC(=N)N)C(=O)N[C@@H](Cc2c[nH]cn2)C(=O)N[C@@H](C(C)C)C(=O)N[C@@H](C)C(=O)N1)C(=O)NCC(N)=O [compound 47] (H-KRHVAELLFMG-NH2; lactam 1-6) ... 590

---

systemTested: B-Raf (Homo sapiens, UniProt P15056)
Sequence (P15056 whole entry): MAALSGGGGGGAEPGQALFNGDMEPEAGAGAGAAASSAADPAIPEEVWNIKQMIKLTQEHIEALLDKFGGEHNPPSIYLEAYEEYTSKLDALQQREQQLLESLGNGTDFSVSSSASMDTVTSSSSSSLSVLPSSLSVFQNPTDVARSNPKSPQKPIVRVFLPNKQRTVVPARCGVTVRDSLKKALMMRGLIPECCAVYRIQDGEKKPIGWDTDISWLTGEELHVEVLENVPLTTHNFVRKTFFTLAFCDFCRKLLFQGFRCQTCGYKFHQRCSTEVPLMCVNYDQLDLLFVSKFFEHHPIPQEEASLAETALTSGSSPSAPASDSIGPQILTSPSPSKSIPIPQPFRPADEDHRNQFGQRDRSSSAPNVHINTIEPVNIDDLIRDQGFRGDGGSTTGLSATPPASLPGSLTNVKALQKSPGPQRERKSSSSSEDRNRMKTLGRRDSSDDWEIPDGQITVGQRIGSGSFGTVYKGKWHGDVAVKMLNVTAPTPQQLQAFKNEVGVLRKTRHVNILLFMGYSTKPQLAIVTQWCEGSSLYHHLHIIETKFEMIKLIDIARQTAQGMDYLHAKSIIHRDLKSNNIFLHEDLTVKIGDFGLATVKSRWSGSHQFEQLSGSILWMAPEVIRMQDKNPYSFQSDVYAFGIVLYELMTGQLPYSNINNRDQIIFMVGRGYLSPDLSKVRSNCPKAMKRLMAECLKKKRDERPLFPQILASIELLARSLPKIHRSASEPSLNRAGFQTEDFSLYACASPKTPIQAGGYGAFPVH
measurementNotes: Dissociation constant (Kd) determination from intrinsic Trp fluorescence (ITF)
Assay type: binding
endpointLabel: Kd (nM)

1) CSCC[C@H](NC(=O)[C@H](Cc1ccccc1)NC(=O)[C@H](CC(C)C)NC(=O)[C@H](CC(C)C)NC(=O)[C@@H]1CCC(=O)NCCCC[C@H](NC(=O)[C@H](CCCCN)NC(=O)[C@H](CCCNC(=N)N)NC(=O)[C@H](CC(C)C)NC(=O)[C@@H](N)C(C)C)C(=O)N[C@@H](CCCNC(=N)N)C(=O)N[C@@H](Cc2c[nH]cn2)C(=O)N[C@@H](C(C)C)C(=O)N[C@@H](C)C(=O)N1)C(=O)NCC(N)=O ... 61
